Examples of molecules with documented IC50 follow.
Target: KRAS Q61H (Homo sapiens (Human), UniProt P01116+P62937, Q61H)
Sequence (P01116-2 other isoform, or with tags, fused parts or gaps Q61H): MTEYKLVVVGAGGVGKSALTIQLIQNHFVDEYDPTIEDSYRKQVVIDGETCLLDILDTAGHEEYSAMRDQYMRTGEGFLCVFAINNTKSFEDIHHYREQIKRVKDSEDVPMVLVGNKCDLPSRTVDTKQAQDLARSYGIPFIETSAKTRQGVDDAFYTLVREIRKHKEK
Sequence (P62937 whole entry): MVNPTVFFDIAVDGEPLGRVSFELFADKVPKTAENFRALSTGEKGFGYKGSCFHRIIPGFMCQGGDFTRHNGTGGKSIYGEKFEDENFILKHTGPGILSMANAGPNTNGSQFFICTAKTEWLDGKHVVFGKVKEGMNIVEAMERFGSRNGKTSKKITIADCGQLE
Assay: Ras-Raf (BRAF RBD) disruption / FRET / MOA assay, KRAS Q61H
Type: biochemical
Conditions: Ras-Raf disruption/FRET/MOA assay; class symbols; read-out: KRAS Q61H FRET data IC50

molecule | IC50
C=CC(=O)N1CC[C@@H]2[C@H](C1)CN2C(=O)N(C)[C@H](C(=O)N[C@H]1Cc2nc(cs2)-c2ccc3c(c2)c(c(-c2cccnc2[C@H](C)OC)n3CC)CC(C)(C)COC(=O)[C@@H]2CCCN(N2)C1=O)C(C)C (atropisomer, axis not shown) | 100 to 1000 nM

# context switch: different molecule, same IC50
Record request: IC50 value, item CCn1c(-c2cccnc2[C@H](C)OC)c2c3cc(ccc31)-c1cccc(n1)C[C@H](NC(=O)[C@H](C(C)C)N(C)C(=O)N1CCC13CN(C(=O)C#CC(C)(C)N(C)C)C3)C(=O)N1CCC[C@H](N1)C(=O)OCC(C)(C)C2 (atropisomer, axis not shown)
100 to 1000 nM
